- assay_details: logP determination via retention times, calibrated with unbranched alkan-2-ones
- Type: physicochemical
- condition_description: method *: HPLC, reversed-phase C 18, 40° C., mobile phase 0.1% aqueous formic acid and acetonitrile, linear gradient from 10% to 95% acetonitrile
logP by entry:

Study these solved cases before continuing.
>>> result("OCc1cc(Nc2ncc(Cl)c(NC3CC3)n2)ccc1F [compound 1047]")
"1.25*"
>>> result("CCc1cccc(Nc2ncc(Cl)c(N(C)C3CC3)n2)c1 [compound 1058]")
"3.65*"

Looking up CCN(CC)C(=O)c1ccc(Nc2ncc(Cl)c(NC3CC3)n2)cc1 [compound 984] , I see its logP listed as 1.84*

Looking up CCN(CC)C(=O)c1cccc(Nc2ncc(C(F)(F)F)c(NC3CC3)n2)c1 [compound 1049] , I see its logP listed as 2.71*

Looking up CC1CCCN1C(=O)c1cccc(Nc2ncc(Cl)c(NC3CC3)n2)c1 (stereo not shown) [compound 1062] , I see its logP listed as 1.86*

Looking up CC(=O)Nc1cc(Nc2ncc(Cl)c(NC3CC3)n2)ccc1C [compound 982] , I see its logP listed as 1.34*

###

logP by entry:
- assay_details: logP determination via retention times, calibrated with unbranched alkan-2-ones
- Assay type: physicochemical
- condition_description: method **: HPLC reversed-phase C 18, 43° C., 0.1% aqueous phosphoric acid and acetonitrile, linear gradient 10% to 95% acetonitrile

Looking up Brc1cnc(Nc2ccccc2)nc1NC1CC1 , I see its logP listed as 1.8**

###

- assay_details: logP determination via retention times, calibrated with unbranched alkan-2-ones
- Type: physicochemical
- condition_description: HPLC on reversed-phase C18, method *: 40° C.; mobile phase 0.1% aqueous formic acid and acetonitrile; linear gradient 10% to 95% acetonitrile
Marks after values point to notes of the source that are not given here.
assay_readout: logP

Study these solved cases before continuing.
>>> result("COC(=O)Nc1cccc(Nc2ncc(Br)c(NC3CC3)n2)c1 [compound 309]")
"1.61*"
>>> result("CC(C)(C)C(=O)Nc1ccc(Nc2ncc(Br)c(NC3CC3)n2)cc1 [compound 347]")
"1.83*"
>>> result("COc1cc(Nc2ncc(Cl)c(NC3(c4ccccc4Cl)CC3)n2)cc(OC)c1OC [compound 320]")
"3.06*"
>>> result("CSc1ccc(Nc2ncc(Br)c(NC3CC3)n2)cc1 [compound 353]")
"2.18*"
>>> result("Fc1ccc(Nc2ncc(Cl)c(NC3CC3)n2)cc1F [compound 321]")
"2.59*"

Looking up FC(F)Oc1ccc(Nc2ncc(Cl)c(NC3CC3)n2)cc1 [compound 288] , I see its logP listed as 2.11*

Looking up CC(=O)c1cccc(Nc2ncc(Br)c(NC3CC3)n2)c1 [compound 358] , I see its logP listed as 1.85*

Looking up FC(F)(F)Oc1ccc(Nc2ncc(Cl)c(NC3CC3)n2)cc1Cl [compound 296] , I see its logP listed as 3.9*

Looking up FC(F)(F)Oc1cccc(Nc2ncc(Cl)c(NC3CC3)n2)c1 [compound 300] , I see its logP listed as 3.18*

###

- assay_details: logP determination via retention times, calibrated with unbranched alkan-2-ones
- Format: physicochemical
- condition_description: HPLC on reversed-phase C18, method *: 40° C., 0.1% aqueous formic acid and acetonitrile, linear gradient 10% to 95% acetonitrile
Marks after values point to notes of the source that are not given here.
logP by entry:

>>> result("Cc1cc(O)ccc1Nc1ncc(Br)c(NC2CC2)n1")
"1.21*"
>>> result("O=C1C=CC(=O)N1c1ccc(Nc2ncc(Cl)c(NC3CC3)n2)cc1")
"1.58*"

Looking up COc1ccc(Nc2ncc(Cl)c(NCC3CC3)n2)cc1 , I see its logP listed as 1.73*

Looking up Brc1ccc(Nc2ncc(Br)c(NC3CC3)n2)cc1 , I see its logP listed as 2.7*

Looking up CC(O)c1cccc(Nc2ncc(C(F)(F)F)c(NCC3CC3)n2)c1 (stereo not shown) , I see its logP listed as 2.16*

Looking up FC(F)(F)c1ccc(Nc2ncc(Cl)c(NCC3CC3)n2)cc1 , I see its logP listed as 3.33*

Looking up O=C(c1cccc(Nc2ncc(Cl)c(NC3CC3)n2)c1)N1CCOCC1 , I see its logP listed as 1.33*

###

- assay_details: logP determination via retention times, calibrated with unbranched alkan-2-ones
- Format: physicochemical
- condition_description: HPLC on reversed-phase C 18, EEC Directive 79/831 Annex V.A8; method *: 40° C., 0.1% aqueous formic acid and acetonitrile, linear gradient 10% to 95% acetonitrile
Marks after values point to notes of the source that are not given here.
assay_readout: logP

Study these solved cases before continuing.
>>> result("O=C(Nc1cccc(Nc2ncc(Br)c(NCC3CC3)n2)c1)c1ccccc1 [compound 492]")
"2.29*"
>>> result("O=S(=O)(Cc1ccc(Nc2ncc(Cl)c(NC3CC3)n2)cc1)N1CCCCC1 [compound 537]")
"2.17*"
>>> result("O=CNc1cccc(Nc2ncc(Cl)c(NCC3CC3)n2)c1 [compound 546]")
"1.46*"
>>> result("CCC(=O)c1cc(Nc2ncc(Cl)c(NCC3CC3)n2)ccc1O [compound 541]")
"2.13*"

Looking up Brc1cnc(Nc2ccc(-n3ccnc3)cc2)nc1NC1CC1 [compound 501] , I see its logP listed as 0.93*

Looking up CCC(=O)c1cc(Nc2ncc(Br)c(NCC3CC3)n2)ccc1O [compound 488] , I see its logP listed as 2.21*

Looking up O=C1Cc2cc(Nc3ncc(Cl)c(NCC4CC4)n3)ccc2N1 [compound 516] , I see its logP listed as 1.31*

Looking up O=C1NC(=O)C(c2ccc(Nc3ncc(Cl)c(NCC4CC4)n3)cc2)N1 (stereo not shown) [compound 512] , I see its logP listed as 1.27*

Looking up FC(F)Oc1cccc(Nc2ncc(Cl)c(NC3CC3)n2)c1 [compound 534] , I see its logP listed as 2.51*

Looking up Cc1cc(Nc2ncc(Cl)c(NCC3CC3)n2)ccc1O [compound 558] , I see its logP listed as 1.51*

Looking up CC(=O)Cc1ccc(Nc2ncc(Br)c(NC3CC3)n2)cc1 [compound 565] , I see its logP listed as 1.58*

Looking up FC(F)C(F)(F)Oc1cccc(Nc2ncc(Br)c(NCC3CC3)n2)c1 [compound 493] , I see its logP listed as 3.1*

Looking up CN(C)C(=O)c1ccc(Nc2ncc(Cl)c(NCC3CC3)n2)cc1 [compound 509] , I see its logP listed as 1.59*

Looking up CN(C)S(=O)(=O)Oc1cccc(Nc2ncc(Br)c(NCC3CC3)n2)c1 [compound 485] , I see its logP listed as 2.51*

Looking up O=C(Nc1cccc(Nc2ncc(Cl)c(NCC3CC3)n2)c1)c1ccccc1 [compound 557] , I see its logP listed as 2.21*

Looking up C=CC(=O)Nc1cccc(Nc2ncc(Br)c(NCC3CC3)n2)c1 [compound 482] , I see its logP listed as 1.66*

Looking up CC1CC(C)CN(c2cccc(Nc3ncc(Cl)c(NC4CC4)n3)c2)C1 (stereo not shown) [compound 528] , I see its logP listed as 2.46*

Looking up O=C1CCc2cc(Nc3ncc(Cl)c(NCC4CC4)n3)ccc2N1 [compound 517] , I see its logP listed as 1.19*

Looking up CC(=O)c1cc(Nc2ncc(Cl)c(NCC3CC3)n2)ccc1O [compound 553] , I see its logP listed as 1.85*

Looking up CC(=O)Nc1ccc(Nc2ncc(Cl)c(NCC3CC3)n2)cc1Cl [compound 505] , I see its logP listed as 1.68*

Looking up O=C1COCCN1c1ccc(Nc2ncc(Br)c(NC3CC3)n2)cc1 [compound 500] , I see its logP listed as 1.29*

Looking up CCC(=O)Nc1cccc(Nc2ncc(Br)c(NCC3CC3)n2)c1 [compound 483] , I see its logP listed as 1.66*

Looking up COC(=O)Nc1cccc(Nc2ncc(Cl)c(NCC3CC3)n2)c1 [compound 515] , I see its logP listed as 1.66*

###

logP by entry:
- assay_details: logP determination via retention times, calibrated with unbranched alkan-2-ones
- Format: physicochemical
- condition_description: HPLC on reversed-phase C 18, EEC Directive 79/831 Annex V.A8; method *: 40° C., 0.1% aqueous formic acid and acetonitrile, linear gradient 10% to 95% acetonitrile
Marks after values point to notes of the source that are not given here.

>>> result("CCN(C(C)=O)c1ccc(Nc2ncc(Cl)c(NCC3CC3)n2)cc1")
"1.73*"
>>> result("FC(F)C(F)(F)Oc1cccc(Nc2ncc(Cl)c(NCC3CC3)n2)c1")
"2.95*"
>>> result("CN(C(=O)C(C)(C)C)c1ccc(Nc2ncc(Cl)c(NCC3CC3)n2)cc1")
"2.02*"
>>> result("CC(=O)Nc1ccc(Nc2ncc(Cl)c(NCC3CC3)n2)cn1")
"0.89*"

Looking up CC(=O)c1cc(Nc2ncc(Br)c(NCC3CC3)n2)ccc1Cl , I see its logP listed as 2.67*

Looking up CC(=O)N1CCc2cc(Nc3ncc(Cl)c(NCC4CC4)n3)ccc21 , I see its logP listed as 1.59*

Looking up FC(F)(F)c1cnc(Nc2cccc(N3CCCC3)c2)nc1NC1CC1 , I see its logP listed as 3.55*

Looking up O=C1COCCN1c1ccc(Nc2ncc(Cl)c(NC3CC3)n2)cc1 , I see its logP listed as 1.17*

Looking up CC(=O)Nc1cc(Nc2ncc(Cl)c(NCC3CC3)n2)ccc1O , I see its logP listed as 1.29*

Data provenance: patent US20100081679A1
